targetOrSystem: human CCR-3 (Homo sapiens)
Sequence (P51677 1-355): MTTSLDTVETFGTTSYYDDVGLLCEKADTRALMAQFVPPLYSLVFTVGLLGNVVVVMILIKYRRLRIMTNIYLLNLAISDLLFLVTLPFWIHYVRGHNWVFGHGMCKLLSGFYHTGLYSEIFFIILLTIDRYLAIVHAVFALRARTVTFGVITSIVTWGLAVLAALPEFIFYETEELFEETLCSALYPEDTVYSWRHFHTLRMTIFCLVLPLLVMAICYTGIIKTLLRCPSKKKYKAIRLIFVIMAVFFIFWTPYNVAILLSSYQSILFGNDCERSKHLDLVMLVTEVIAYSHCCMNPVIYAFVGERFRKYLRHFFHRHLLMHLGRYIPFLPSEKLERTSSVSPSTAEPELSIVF
propertyMeasured: IC50 (nM)
The figure you give is taken to be in nM; do not add the unit.

## Task Hi! What's the reported IC50 for COc1cccc(NC(=O)NCCCN2CCC(Oc3ccc(F)cc3)C2)c1 (stereo not shown) [Example 2] on human CCR-3 (Homo sapiens)?
## Result 270
